# Tested on: CCRIS mutagenicity, Ames/micronucleus/aberration tests
# PROTOCOL_SUMMARY: CCRIS mutagenicity studies
# MEASUREMENT_PARAMETERS: Test System: AMES SALMONELLA TYPHIMURIUM; Strain/Indicator: TA100; Metabolic Activation: NONE; Method: STANDARD PLATE
Calls of active or inactive are those of the source. No rule for the calls is given here.
PROPERTY: mutagenic call

// known answers, use as guide
O=CN(O)c1ccc(Oc2ccc(Cl)cc2Cl)cc1 :: inactive; negative
O=P(OCC(Br)CBr)(OCC(Br)CBr)OCC(Br)CBr (stereo unspecified) :: inactive; negative
Oc1ccc2cccnc2c1 :: inactive; negative
O=[N+]([O-])c1ccc(/C=C/c2cccc(Cl)c2)cc1 :: active; positive
Clc1ccccc1Cl :: inactive; negative
ClC(Cl)(Cl)C1CO1 (stereo unspecified) :: active; positive

Note to self: mutagenic call recorded for `CC1=C(Cl)C(=O)NC1=O` was inactive; negative

Please fill in: mutagenic call reported for `O=C1C(c2[nH]c3ccccc3c2O)=Nc2ccccc21` = inactive; negative

Form: compound = `O=[N+]([O-])c1cccc2c(Cl)nsc12` ; mutagenic call = active; positive

Looking up `Cc1cncc(C)c1.Cc1cncc(C)c1.[Cl][Pt][Cl]` , I see its mutagenic call listed as inactive; negative

The reported mutagenic call of the compound CCOC(=O)C1(CCCCCCOCc2cccs2)CO1 (stereo unspecified) was inactive; negative
